target: human JAK1 (a.a. 837-1142) (Homo sapiens, UniProt P23458); construct: human JAK1 (a.a. 837-1142); His tag (N); made in house; host or cells: insect cells (baculovirus); test: In vitro JAK kinase assay (HTRF, phosphorylation of a biotinylated peptide), JAK1; type: biochemical; conditions: Table B1; read-out: JAK1 IC50
Sequence (P23458 849-1154): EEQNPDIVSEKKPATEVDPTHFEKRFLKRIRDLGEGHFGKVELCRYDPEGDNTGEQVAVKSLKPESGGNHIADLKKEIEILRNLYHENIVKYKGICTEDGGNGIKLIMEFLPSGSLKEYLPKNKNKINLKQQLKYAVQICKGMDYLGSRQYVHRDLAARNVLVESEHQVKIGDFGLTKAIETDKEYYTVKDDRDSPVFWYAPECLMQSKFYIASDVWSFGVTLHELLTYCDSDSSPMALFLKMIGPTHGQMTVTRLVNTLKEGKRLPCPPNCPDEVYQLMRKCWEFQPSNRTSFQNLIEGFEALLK
Structures can show the parent of a compound that is named as a salt.
assay-readout: IC50 (nM)
Provide the reading as a plain figure in nM.

[[record]]
compound = "O=C(NCCN1CCCCC1)Nc1ccc2cc1CCc1cccc(c1)Nc1ncc(Cl)c(n1)N2 [Example B258, bis(trifluoroacetate)]"
assay_readout = "IC50"
measured_result = 4.9

[[record]]
compound = "Clc1cnc2nc1Nc1ccc(Nc3nccc(-c4ccccc4)n3)c(c1)CCc1cccc(c1)N2 [Example B279, tris(trifluoroacetate)]"
assay_readout = "IC50"
measured_result = 86

[[record]]
compound = "CC(C)(C)OC(=O)N1CCC(NC(=O)Nc2ccc3cc2CCc2cccc(c2)Nc2ncc(Cl)c(n2)N3)CC1"
assay_readout = "IC50"
measured_result = 91

[[record]]
compound = "O=S(=O)(Nc1ccc2cc1CCc1cccc(c1)Nc1ncc(Cl)c(n1)N2)c1ccccc1 [Example B136, trifluoroacetate]"
assay_readout = "IC50"
measured_result = 0.24


Can you share its IC50? I mean this compound: O=C(Nc1ccc2cc1CCc1cncc(c1)Nc1ncc(Cl)c(n1)N2)N1CCN(c2cnccn2)CC1 [Example B294, (trifluoroacetate)]
19

I have this compound here, CCCc1ccccc1NC(=O)Nc1ccc2cc1CCc1cccc(c1)Nc1ncc(Cl)c(n1)N2 [Example B105, trifluoroacetate] , and I need its recorded IC50.
3.9

For the compound Cc1cnc2nc1Nc1cccc(c1)CCc1cccc(c1)N2 [Example B2, trifluoroacetate] , what IC50 is on record?
11

// query IC50 value for entry CC(C)(C)c1ccc(C(=O)Nc2ccc3cc2CCc2cccc(c2)Nc2ncc(Cl)c(n2)N3)cc1 [Example B73, trifluoroacetate]
80

Quick one: IC50 for COCC(=O)Nc1ccc2cc1CCc1cccc(c1)Nc1ncc(Cl)c(n1)N2 [Example B28, trifluoroacetate] ?
8.2

Fill in: IC50 of O=C(Nc1ccc2cc1CCc1cccc(c1)Nc1ncc(Cl)c(n1)N2)c1ccsc1 [Example B62, trifluoroacetate] is ___
1.8
